# procedure summary: NCI Yeast Anticancer Drug Screen. Data for the mec2-1 strain (AID 157)
# details: S. cerevisiae mec2-1 strain, at 50.0 µM, hits give high values
The panel holds about 79,000 compounds, 15% with a hit somewhere; the sample as a whole holds those more often.
Quick rule for you: growth inhibition at 80% or higher means met, lower means not met.

Query string: Could you tell me if the measured growth inhibition of `Cc1ccc(C(=O)CCCN2CCOCC2)c(C)c1` reaches 80% or more?
Result string: not met

Query string: Could you tell me if the measured growth inhibition of CCCCCCCCCCCC(=O)OCC1CO1 (configuration not stated) reaches 80% or more?
Result string: not met

Query string: Could you tell me if the measured growth inhibition of CC(=O)N1C(c2[nH]c3ccccc3c2Cc2ccccc2)CCN1c1ccccc1 (configuration not stated) reaches 80% or more?
Result string: met

Query string: Could you tell me if the measured growth inhibition of `Cc1c(NC(=O)CCl)c(=O)oc2c(C)c3occc(=O)c3cc12` reaches 80% or more?
Result string: met

Query string: Could you tell me if the measured growth inhibition of C=CCOC(=O)CC(OC(C)=O)C(CC)CC(C)C (configuration not stated) reaches 80% or more?
Result string: not met

Query string: Could you tell me if the measured growth inhibition of `Cc1cnc2cccc(Cl)c2c1Cl` reaches 80% or more?
Result string: not met

Query string: Could you tell me if the measured growth inhibition of `CS(=O)(=O)c1nnnn1-c1ccccc1` reaches 80% or more?
Result string: met

Query string: Could you tell me if the measured growth inhibition of `O=C(N/C(=C\c1nc2ccccc2s1)c1ccccc1O)c1ccccc1` reaches 80% or more?
Result string: not met

Query string: Could you tell me if the measured growth inhibition of `Clc1cc2ccccc2c2ccccc12` reaches 80% or more?
Result string: not met

Query string: Could you tell me if the measured growth inhibition of `Cc1cc(CC(O)(C(F)(F)F)C(F)(F)F)cc(CC(O)(C(F)(F)F)C(F)(F)F)n1` reaches 80% or more?
Result string: met

Query string: Could you tell me if the measured growth inhibition of O=C1C(Cl)=C(c2ccccc2)C1Cl (configuration not stated) reaches 80% or more?
Result string: met
